tested on: MOLM14; experiment: cell viability relative to vehicle control; higher = less cytotoxic; conditions: 10 µM; SRSF2 genotype: SRSF2 wt/wt;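 also: after 48 h exposure read by CellTiter-Glo luminescence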
Counter-ions that a name gives are not always drawn.
Provide the recorded cell viability for the entries that follow.
Numbers only, in %.

The cases that follow already have their cell viability on record.
molecule | unit-of-measurement | data-value
CC(=O)O[C@@]12CO[C@@H]1C[C@H](O)[C@@]1(C)C(=O)[C@H](O)C3=C(C)[C@@H](OC(=O)[C@H](O)[C@@H](NC(=O)c4ccccc4)c4ccccc4)C[C@@](O)([C@@H](OC(=O)c4ccccc4)[C@H]21)C3(C)C | % | 3.82
N#CC(C#N)=NNc1ccc(OC(F)(F)F)cc1 | % | 11.2
O=C1C=CC[C@@H]2[C@H]3CCCN4CCC[C@@H](CN12)[C@@H]34 | % | 106
CCN(Cc1ccc(Cl)nc1)/C(=C/[N+](=O)[O-])NC | % | 98.6
C/C(=C\c1csc(C)n1)[C@@H]1C[C@@H]2O[C@@H]2CCC[C@H](C)[C@H](O)[C@@H](C)C(=O)C(C)(C)[C@@H](O)CC(=O)O1 | % | 2.31

Give cell viability for each of the items listed below.
1. CN1c2ccccc2C(NCCCCCCC(=O)O)c2ccc(Cl)cc2S1(=O)=O (stereo not given) [Tianeptine sodium]
2. O=c1[nH]c2ccccc2o1
3. OC(c1ccccc1)(c1ccccc1)C1CCNCC1

Result block:
1. 101
2. 104
3. 97.8

Give cell viability for each of the items listed below.
1. COc1ccc2c(c1OC)CN1CCc3cc4c(cc3C1C2)OCO4 (stereo not given) [Tetrahydroberberine]
2. CCC12C=CCN3CC[C@@]4(c5ccc(OC)cc5N(C)[C@H]4[C@@](O)(C(=O)OC)[C@@H]1OC(C)=O)[C@@H]32 (stereo not given in full)
3. Cn1cc(C2=C(c3cn(C4CCN(Cc5ccccn5)CC4)c4ccccc34)C(=O)NC2=O)c2ccccc21
4. ClCCN(Cc1ccccc1)Cc1ccccc1 [Dibenamine Hydrochloride]
5. CC1C(=O)OC2C(O)C34C5OC(=O)C3(OC3OC(=O)C(O)C34C(C(C)(C)C)C5O)C12O (stereo not given) [Ginkgolide C]
6. CCC(C)C(=O)O[C@@H]1[C@@H](OC(C)=O)[C@]2(C)[C@H](C(C)=O)CC[C@@]23O[C@]32CC[C@H]3C[C@@H](O[C@H]4C[C@@H](OC)[C@H](O[C@@H]5O[C@H](C)[C@@H](O)[C@@H](OC)[C@H]5O)[C@@H](C)O4)CC[C@]3(C)[C@@H]12 (stereo not given in full) [Tenacissoside H]

Result block:
[86.6, 105, 91.3, 103, 103, 93.4]

Give cell viability for each of the items listed below.
1. Cc1ccccc1-n1c(CF)nc2ccc(N)cc2c1=O
2. CCc1c2c(nc3ccccc13)-c1cc3c(c(=O)n1C2)COC(=O)[C@]3(O)CC
3. COc1cc([C@@H]2c3cc4c(cc3[C@H](O)[C@H]3COC(=O)[C@H]23)OCO4)cc(OC)c1O
4. C[C@]12CC[C@H](O)C[C@@H]1CC[C@@H]1[C@@H]2CC[C@]2(C)C(=O)CC[C@@H]12
5. COc1c(C)c(O)cc2[o+]c(-c3ccccc3)ccc12.[O-][Cl+3]([O-])([O-])[O-] [Dracohodin perochlorate]
6. Cc1sc2c(c1C)C(c1ccc(Cl)cc1)=N[C@@H](CC(=O)Nc1ccc(O)cc1)c1nnc(C)n1-2
7. Cc1cccc([C@H](C)c2c[nH]cn2)c1C [Dexmedetomidine HCl (Precedex)]

Result block:
96.2
0.48
0.99
107
82.3
14.1
104

Give cell viability for each of the items listed below.
1. Fc1cc(F)c2c(c1)[C@H]1C=CC[C@H]1C(c1cccnc1)N2 (stereo not given in full) [Golgicide A]
2. CN1CC=C(c2ccccc2)CC1 [MPTP hydrochloride]
3. C=C[C@H]1CN2CC[C@]3(C(=O)Nc4ccccc43)[C@@H]2C[C@@H]1/C(=C\OC)C(=O)OC
4. O=c1[nH]c2ccccc2n1C1CCN(Cc2ccc(-c3[nH]c4cc5ncnc5cc4nc3-c3ccccc3)cc2)CC1

Result block:
[68.2, 105, 93.1, 43.6]
